Reference source for all entries: a protein production outcome set (Wang et al. 2014)

method summary: label from the status in PepcDB records

input sequence	protein production
MDARIVNALIGSVYETIRDVLGIEPKTGKPSTVSHIEIPHSLVTVIGITGGIEGSLIYSFSSETALKVVSAMMGGMEYNQLDELALSAIGELGNMTAGKLAMKLEHLGKHVDITPPTVVSGRDLKIKSFGVILKLPISVFSEEDFDLHLSVKSGG	not failed
MREHLKLFSLIFSYPDEDKLGKAIALAEGIGLTEIAQTLKQVDIEALQVEYTSLFISSHPSVPCPPYQSYFEEGSVYGKASLRAAELYSKYGLNYVYESEPPDHISVELEFLSMNPELLSDFRDWFLEFAKCVEEKSEIYATFARAFRKFLEKPSKVQS	not failed
